The origin of these recorded values is ChEMBL document CHEMBL4422610.

Target: Polyamine deacetylase HDAC10 (Homo sapiens, UniProt Q969S8)
Sequence (Q969S8 whole entry): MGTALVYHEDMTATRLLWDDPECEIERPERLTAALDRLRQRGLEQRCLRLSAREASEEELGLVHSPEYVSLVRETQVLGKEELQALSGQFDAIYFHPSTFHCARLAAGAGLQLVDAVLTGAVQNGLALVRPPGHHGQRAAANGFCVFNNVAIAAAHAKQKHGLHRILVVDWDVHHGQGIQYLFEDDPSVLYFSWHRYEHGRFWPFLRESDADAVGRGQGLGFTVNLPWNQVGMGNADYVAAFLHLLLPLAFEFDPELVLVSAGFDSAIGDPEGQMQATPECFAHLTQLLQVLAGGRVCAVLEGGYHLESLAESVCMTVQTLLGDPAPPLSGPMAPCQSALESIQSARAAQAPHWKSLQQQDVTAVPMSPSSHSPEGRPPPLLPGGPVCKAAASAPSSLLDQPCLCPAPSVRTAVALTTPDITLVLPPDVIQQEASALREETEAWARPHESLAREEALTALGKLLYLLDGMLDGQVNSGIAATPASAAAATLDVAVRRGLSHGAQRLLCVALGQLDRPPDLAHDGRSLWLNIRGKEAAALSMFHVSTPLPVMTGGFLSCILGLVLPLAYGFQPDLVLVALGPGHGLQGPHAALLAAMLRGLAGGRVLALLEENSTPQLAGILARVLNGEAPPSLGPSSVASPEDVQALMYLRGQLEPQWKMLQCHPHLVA
Assay: Inhibition of recombinant full-length human HDAC10 using RHKK(Ac) as substrate measured after 2 hrs by fluorescence assay
RESULT_TYPE: IC50 (nM)
Write the value in nM as a bare number.

SMILES_ENTRY: O=C(/C=C/c1cccn(CCc2ccc3ccccc3c2)c1=O)NO
TESTED_TARGET: Polyamine deacetylase HDAC10 (Homo sapiens, UniProt Q969S8)
RECORDED_MEASUREMENT: 1460

Please state recorded IC50 (tested on Polyamine deacetylase HDAC10 (Homo sapiens, UniProt Q969S8)) of O=C(/C=C/c1cccn(CCCc2ccc3ccccc3c2)c1=O)NO
51.6
